Target: T1, rat Y4 receptor (rat, UniProt Q63447 1-375)
T1 construct: whole, on cells; also called rY4
T1 sequence (Q63447 whole entry): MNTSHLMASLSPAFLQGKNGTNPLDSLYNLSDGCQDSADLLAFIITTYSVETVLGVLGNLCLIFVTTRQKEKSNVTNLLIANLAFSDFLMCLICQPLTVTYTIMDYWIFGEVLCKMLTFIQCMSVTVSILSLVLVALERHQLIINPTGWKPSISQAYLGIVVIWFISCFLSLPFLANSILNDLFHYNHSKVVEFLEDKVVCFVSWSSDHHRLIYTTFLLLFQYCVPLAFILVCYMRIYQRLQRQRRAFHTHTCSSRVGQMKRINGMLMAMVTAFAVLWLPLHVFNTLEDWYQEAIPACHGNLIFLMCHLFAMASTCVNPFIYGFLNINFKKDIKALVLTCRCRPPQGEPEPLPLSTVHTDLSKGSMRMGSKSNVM
Assay: 125I-PYY displacement, COS-7 membranes
pKi: −log10 of the molar value.
endpoint: pKi

>>> result("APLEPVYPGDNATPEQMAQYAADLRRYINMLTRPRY (peptide, UniProt P01298 30-65, looked up, mature; also called PP, human; human pancreatic polypeptide) [human PP]")
"> 9.70"
>>> result("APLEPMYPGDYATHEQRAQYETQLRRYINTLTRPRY (peptide, UniProt P06303 30-65, looked up, mature; also called PP, rat) [rat PP]")
"> 9.70"
